Value source: patent US20230220057A1

// values below are reported EC50
Assayed System: recombinantly produced human-NGF (human, UniProt P01138 122-241, limits assumed)
Sequence (P01138 122-241 limits assumed): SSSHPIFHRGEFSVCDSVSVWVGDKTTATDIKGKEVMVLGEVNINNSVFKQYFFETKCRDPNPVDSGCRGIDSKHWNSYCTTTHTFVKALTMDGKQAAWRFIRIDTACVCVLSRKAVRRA
Method Description: ELISA, human NGF coated, IgG titrated
Enter your answer as a number in ng/mL; do not include the unit.

Ask: In one line, give reported EC50 of the entry Ab50 (antibody, human IgG1, V domains shown) VH: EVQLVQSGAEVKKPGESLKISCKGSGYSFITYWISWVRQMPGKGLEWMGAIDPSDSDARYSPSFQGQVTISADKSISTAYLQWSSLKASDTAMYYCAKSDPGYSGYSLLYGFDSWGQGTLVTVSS VL: DIVMTQSPLSLPVTLGQPASISCRSSQSLVQRNGNTYLSWFQQRPGQPPRLLIYQVSNRYSGVPDRFSGSGSGTDFTLKISRVEAEDVGVYYCGQGAHLPLTFGQGTKVEIK .
Result: 0.00629

Ask: In one line, give reported EC50 of the entry Ab45 (antibody, human IgG1, V domains shown) VH: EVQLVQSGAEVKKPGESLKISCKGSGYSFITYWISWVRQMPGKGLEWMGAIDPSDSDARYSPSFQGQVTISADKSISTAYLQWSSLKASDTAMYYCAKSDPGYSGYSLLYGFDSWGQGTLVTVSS VL: DVVMTQSPLSLPVTLGQPASISCRSSQSLVQRNGNTYLSWYQQRPGQPPRLLIYQVSNRYSGVPDRFSGSGSGTDFTLKISRVEAEDVGVYYCGQGAHLPLTFGQGTKVEIK .
Result: 0.0166
